Cited source: patent US20070015723A1

Tested on: HSV-1 (KOS)
Assay: HSV-1 infection ELISA assay
Type: cell-based
Settings: 50% inhibition of HSV replication relative to control infected cells; Table 1
Strand notation (5' to 3'): a small letter for the sugar, then the base; units joined by * are phosphorothioate-linked, units joined directly phosphodiester-linked; [ ] holds rarer units or linkages, { } end groups; capitals alone tell only the bases. d = 2'-deoxy (DNA)
Each entry below carries its reported EC50.

Substance | Sign | EC50 / nM
ISIS 5302: CAC GAA AGG CAT GAC, P = S, SEQ ID NO 7 (CACGAAAGGCATGAC; all phosphorothioate, sugars by position and methylation of C not given here) | > | 3000
ISIS 4560: GGGG C GGGG C GGGG C GGGG C G, P = S, SEQ ID NO 42 (dG*dG*dG*dG*dC*dG*dG*dG*dG*dC*dG*dG*dG*dG*dC*dG*dG*dG*dG*dC*dG) | = | 180
ISIS 4895: CGC CGA TGC GGG GCG, P = S, SEQ ID NO 19 (CGCCGATGCGGGGCG; all phosphorothioate, sugars by position and methylation of C not given here) | = | 550

---

System: HSV1-DM2.1
Assay: microbe, parasite or virus in culture
Type: cell-based, HSV-1
Conditions: Human alphaherpesvirus 1
pEC50: −log10 of the molar value.

Molecule | pEC50
Nc1nc2c(ncn2COCCO)c(=O)[nH]1 [ACV, 9-(2-hydroxyethoxymethyl)guanine] | < 5.52

---

Target: human type II phospholipase A2 (Homo sapiens)
Sequence (P14555 21-144): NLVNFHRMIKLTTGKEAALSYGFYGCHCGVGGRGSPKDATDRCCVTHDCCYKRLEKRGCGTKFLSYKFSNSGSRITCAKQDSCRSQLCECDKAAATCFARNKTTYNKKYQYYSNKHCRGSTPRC
Experiment: Human type II phospholipase A2 enzyme assay (3H-oleic acid labelled E. coli substrate)
Assay type: biochemical
Details: 1 μM; Table 4
Strand notation (5' to 3'): a small letter for the sugar, then the base; units joined by * are phosphorothioate-linked, units joined directly phosphodiester-linked; [ ] holds rarer units or linkages, { } end groups; capitals alone tell only the bases. d = 2'-deoxy (DNA)
Parameter threshold = 30%. Response is True when % Inhibition (1 μM) meets or exceeds it, else False.

Substance | Category label
ISIS 3471: AAGGAACTTGGTTAGGGTAGG, phosphorothioate, SEQ ID NO 67 (dA*dA*dG*dG*dA*dA*dC*dT*dT*dG*dG*dT*dT*dA*dG*dG*dG*dT*dA*dG*dG) | True
ISIS 3631: AGGTCGAGGAGTGGTCTGAGC, phosphorothioate, SEQ ID NO 81 (dA*dG*dG*dT*dC*dG*dA*dG*dG*dA*dG*dT*dG*dG*dT*dC*dT*dG*dA*dG*dC) | False
ISIS 3676: AGCTCTTACCAAAGATCATGA, phosphorothioate, SEQ ID NO 89 (dA*dG*dC*dT*dC*dT*dT*dA*dC*dC*dA*dA*dA*dG*dA*dT*dC*dA*dT*dG*dA) | False
ISIS 3712: AGGAGTCCTGTTTTGAAATCA, phosphorothioate, SEQ ID NO 94 (dA*dG*dG*dA*dG*dT*dC*dC*dT*dG*dT*dT*dT*dT*dG*dA*dA*dA*dT*dC*dA) | True
ISIS 3633: GTAGGGATGGGAGTGAAGGAG, phosphorothioate, SEQ ID NO 83 (dG*dT*dA*dG*dG*dG*dA*dT*dG*dG*dG*dA*dG*dT*dG*dA*dA*dG*dG*dA*dG) | True
ISIS 3192: GGAAGGTTTCGAGQGAAGAGG, phosphorothioate, SEQ ID NO 63 | False
ISIS 3193: CCTGCAGTAGGCCTGGAAGGA, phosphorothioate, SEQ ID NO 64 (dC*dC*dT*dG*dC*dA*dG*dT*dA*dG*dG*dC*dC*dT*dG*dG*dA*dA*dG*dG*dA) | False
